TEST_TARGET: Adenosine receptor A2b (Homo sapiens)
PROTOCOL_DETAILS: Displacement of [3H]DPCPX from human adenosine A2B receptor expressed in HEK293 cells at 10 uM after 30 mins by beta scintillation counting
Assay type: cell-based
Everything with inhibition lower than 40% is condition not met; everything else, including exactly 40%, is condition met.

* COc1cccc2cc(C(=O)NCC(O)CO)c(=O)oc12 (configuration not stated) | condition not met
* COc1cccc2cc(C(=O)NCC(=O)O)c(=O)oc12 | condition not met
* O=C(NCC(O)CO)c1cc2cc(Cl)ccc2oc1=O (configuration not stated) | condition not met
* N=c1oc2ccc(Br)cc2cc1C(=O)NC1CCCC1 | condition not met
* N=c1oc2ccc(Br)cc2cc1C(=O)NCCCO | condition not met
* COC(=O)/C(C#N)=C/c1cccc(OC)c1O | condition met
* COCCNC(=O)c1cc2cccc(OC)c2oc1=N | condition met
* COc1cccc2cc(C(=O)NCCCOCCCCOCCCNC(=O)c3cc4cccc(OC)c4oc3=N)c(=N)oc12 | condition met
* COc1cccc2c1OC(C)(O)C(C(C)=O)=C2 (configuration not stated) | condition not met
* COc1cccc2cc(C(=O)NCCO)c(=O)oc12 | condition not met
* COc1cccc2cc(C(=O)NCCO)c(=N)oc12 | condition met
* CCC(CO)NC(=O)c1cc2cc(Br)ccc2oc1=N (configuration not stated) | condition not met

---

Items are presented alongside their recorded pKb.
TEST_TARGET: Adenosine receptor A2a (Homo sapiens, UniProt P29274)
Sequence (P29274 whole entry): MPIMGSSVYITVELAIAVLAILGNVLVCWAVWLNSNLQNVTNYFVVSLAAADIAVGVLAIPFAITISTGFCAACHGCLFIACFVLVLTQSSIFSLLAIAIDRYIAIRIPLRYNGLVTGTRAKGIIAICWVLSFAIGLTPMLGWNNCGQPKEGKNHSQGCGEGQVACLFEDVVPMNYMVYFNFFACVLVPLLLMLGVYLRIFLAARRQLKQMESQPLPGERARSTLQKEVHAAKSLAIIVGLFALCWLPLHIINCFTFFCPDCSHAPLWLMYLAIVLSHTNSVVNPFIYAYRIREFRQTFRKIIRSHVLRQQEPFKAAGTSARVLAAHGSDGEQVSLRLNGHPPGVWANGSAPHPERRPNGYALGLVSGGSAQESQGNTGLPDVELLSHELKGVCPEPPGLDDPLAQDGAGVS
PROTOCOL_DETAILS: Antagonist activity at human adenosine A2A receptor expressed in CHO cells assessed as inhibition of NECA-induced cAMP accumulation incubated for 15 mins prior to NECA-induction measured after 15 mins by enzyme immunoassay relative to control
Format: functional, cell-based
MEASURE_NAME: pKb

- COc1cccc2cc(C(=O)NCCc3ccc(O)cc3)c(=N)oc12: 6.54
- COc1cccc2cc(C(=O)NCCCOCCCCOCCCNC(=O)c3cc4cccc(OC)c4oc3=N)c(=N)oc12: 6.36
- COc1cccc2cc(C(N)=O)c(=N)oc12: 6.59
- COc1cccc2cc(C(=O)Nc3c(C#N)ncn3-c3ccc(F)cc3)c(=N)oc12: 6.02
- COc1cccc2cc(C(=O)NC3CCCCC3)c(=N)oc12: 6.1

---

Items are presented alongside their recorded pKi.
Sequence of the target: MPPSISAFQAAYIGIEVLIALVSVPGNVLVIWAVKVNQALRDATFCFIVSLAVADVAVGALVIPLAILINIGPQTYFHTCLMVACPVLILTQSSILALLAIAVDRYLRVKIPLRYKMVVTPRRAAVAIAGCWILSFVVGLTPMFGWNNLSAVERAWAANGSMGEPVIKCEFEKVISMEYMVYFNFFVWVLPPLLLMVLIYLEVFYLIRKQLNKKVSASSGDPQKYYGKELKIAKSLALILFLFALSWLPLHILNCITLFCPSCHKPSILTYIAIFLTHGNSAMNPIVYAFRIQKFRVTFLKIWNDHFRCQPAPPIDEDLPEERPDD
pKi: −log10 of the molar value.
MEASURE_NAME: pKi

- COCCNC(=O)c1cc2cccc(OC)c2oc1=N: 5.20
- COc1cccc2cc(C(=O)NCCCN3CCN(CCCNC(=O)c4cc5cccc(OC)c5oc4=N)CC3)c(=N)oc12: 5.60
- COc1cccc2cc(C(=O)NC3CCCC3)c(=N)oc12: 5.50
